Assay Procedure: chemical genetic growth profiling, strain panel (AID 1159580);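 note: tested at 20 µM; growth read once vehicle control cultures reached saturation at 30 °C; 1 = growth at the plate median or of vehicle wells; lower values mean less growth of the strain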
Setup Conditions: S. cerevisiae deletion strains, growth OD, locus YNL248C, strain rpa49, active compounds read low
Among all 5,500 compounds or so, about 2,000 (36%) were called active. Not shown: some 18% with an inconclusive outcome. The list shows a part of the results.
Measured Property: normalized growth

NC[C@@H]1O[C@H](O[C@@H]2[C@@H](CO)OC(O[C@@H]3[C@@H](O)[C@H](N)C[C@H](N)[C@H]3O[C@H]3O[C@H](CO)[C@@H](O)[C@H](O)[C@H]3N)[C@@H]2O)[C@H](N)[C@@H](O)[C@@H]1O (some centres not stated)
0.988
COC1=CC(=O)C=C(OC)C1=O
1.01
CN(C)C(=O)C(CCN1CCC(O)(c2ccc(Cl)cc2)CC1)(c1ccccc1)c1ccccc1
0.988
COc1cc(O)c2c(=O)cc(-c3ccc(OC)c(-c4c(O)cc(O)c5c(=O)cc(-c6ccc(O)cc6)oc45)c3)oc2c1
1.02
COc1ccc(-c2cc(=O)c3c(O)cc(O)c(-c4cc(-c5cc(=O)c6c(O)cc(O)cc6o5)ccc4OC)c3o2)cc1
1
COc1ccccc1N1CCN(CCCNc2cc(=O)n(C)c(=O)n2C)CC1
1
NCCCC(O)(P(=O)(O)O)P(=O)(O)O
0.985
CCCc1nn(C)c2c(=O)[nH]c(-c3cc(S(=O)(=O)N4CCN(C)CC4)ccc3OCC)nc12
0.981
NCCCN
0.993
CC1(C)S[C@@H]2[C@H](NC(=O)C(C(=O)O)c3ccccc3)C(=O)N2[C@H]1C(=O)O (some centres not stated)
1.02
COC1=CC(C)[C@@H]2C[C@H]3OC(=O)C[C@H]4C(C)=C(OC)C(=O)C([C@@]34C)[C@@]2(C)C1=O (some centres not stated)
1.01
O=C(O)CCc1nc(-c2ccccc2)c(-c2ccccc2)o1
0.974

* * *

Assay Procedure: chemical genetic growth profiling, strain panel (AID 1159580)
Setup Conditions: S. cerevisiae deletion strains, growth OD, locus YJL187C, strain SWE1, active compounds read low
The whole screen tested about 5,500 compounds, of which about 2,000 (36%) were called active. Not shown: some 18% with an inconclusive outcome. The list shows a part of the results.
In this section, each of the compounds is paired with its reported normalized growth.
Measured Property: normalized growth

COc1nc(NC(C)C)nc(NC(C)C)n1
1
CC1CC(=O)Nc2ccccc2N1C(=O)c1ccc([N+](=O)[O-])cc1 (stereo not drawn)
1.01
C=CCSSSCC=C
0.984
C=CCSCC=C
0.986
COc1ccc(-c2cc(=O)c3c(O)cc(O)cc3o2)cc1
1.01
CC(=O)N1CCN(c2ccc(OCC3CO[C@](Cn4ccnc4)(c4ccc(Cl)cc4Cl)O3)cc2)CC1 (stereo partly drawn)
0.0925
CC1=C2C(O)C(=O)OC3CC4C(C)(C)C(=O)C=C[C@]4(C)C(CC1)[C@]23C (stereo partly drawn)
1.01
O=[N+]([O-])c1cnc2ccccn12
0.992
NC[C@@H]1O[C@H](O[C@@H]2[C@@H](CO)OC(O[C@@H]3[C@@H](O)[C@H](N)C[C@H](N)[C@H]3O[C@H]3O[C@H](CO)[C@@H](O)[C@H](O)[C@H]3N)[C@@H]2O)[C@H](N)[C@@H](O)[C@@H]1O (stereo partly drawn)
0.992
NC(N)=NC(N)=Nc1cc(Cl)cc(Cl)c1
1.01
COc1cc(NC(=S)N2CCN(c3ccccc3OC)CC2)c(OC)cc1Cl
0.997
C[C@@H](CO)NC(=O)C1C=C2c3cccc4[nH]cc(c34)C[C@H]2N(C)C1 (stereo partly drawn)
1.02
Cc1ccc(Cl)cc1NC(=S)N(CCC#N)/N=C\c1ccc2c(c1)OCO2
0.995
CCCCCCCCCCCCSc1nnc(N)s1
0.995
CCOC(=O)/C(C#N)=C/Nc1ccc2c(c1)OCO2
0.982
CSc1nc(NC(C)C)nc(NC(C)C)n1
0.973
NCCCC(O)(P(=O)(O)O)P(=O)(O)O
0.991
Nc1nc(/C(=C/CC(=O)O)C(=O)N[C@@H]2C(=O)N3C(C(=O)O)=CCS[C@H]23)cs1
1.01
COc1ccccc1N1CCN(CCCNc2cc(=O)n(C)c(=O)n2C)CC1
1.01
CC(=O)CS(=O)(=O)c1ccc(Cl)cc1
0.995
CC(=O)C1=C(C)Nc2ccccc2S1
0.954
NC(=S)CS(=O)(=O)c1ccc(C(F)(F)F)cc1
1.02
C[N+]1(C)C[C@H](O)[C@H](C(=O)[O-])C1
1.01
CCn1nc(C(=O)O)c(=O)c2cc3c(cc21)OCO3
1.02
O=C1C(c2ccc(Br)cc2)=C(O)c2ccccc21
0.913
Cc1ccc(S(=O)(=O)N2CCC(N)=N2)cc1
0.999
Cc1c(C(N)=O)cc([N+](=O)[O-])cc1[N+](=O)[O-]
1.01
CCCc1nn(C)c2c(=O)[nH]c(-c3cc(S(=O)(=O)N4CCN(C)CC4)ccc3OCC)nc12
0.991

* * *

In this section, each of the molecules is paired with its reported normalized growth.
Assay Procedure: chemical genetic growth profiling, strain panel (AID 1159580);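 note: tested at 20 µM; growth read once vehicle control cultures reached saturation at 30 °C; 1 = growth at the plate median or of vehicle wells; lower values mean less growth of the strain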
Setup Conditions: S. cerevisiae deletion strains, growth OD, locus YCL029C, strain bik1, active compounds read low
Hit rate of the full screen: of about 5,500 compounds, about 2,000 (36%) were called active. Not shown: some 18% with an inconclusive outcome. The list shows a part of the results.
Measured Property: normalized growth

Cc1ccccc1N1C(=O)c2cc(S(N)(=O)=O)c(Cl)cc2NC1C (centres undefined)
0.979
NCCCN
0.984
CC1Cc2ccccc2N1NC(=O)c1ccc(Cl)c(S(N)(=O)=O)c1 (centres undefined)
1.01
NCCCCN
0.99
COc1nc(NC(C)C)nc(NC(C)C)n1
1.02
CC[C@@]1(O)C(=O)OCc2c1cc1n(c2=O)Cc2cc3cc(O)ccc3nc2-1
0.992
NS(=O)(=O)c1cc2c(cc1C(F)(F)F)NC(Cc1ccccc1)NS2(=O)=O (centres undefined)
1.01
COC1=CC(C)[C@@H]2C[C@H]3OC(=O)C[C@H]4C(C)=C(OC)C(=O)C([C@@]34C)[C@@]2(C)C1=O (some centres undefined)
1.02
CC1CCCC(C)N1NC(=O)c1ccc(Cl)c(S(N)(=O)=O)c1 (centres undefined)
0.974

* * *

Assay Procedure: chemical genetic growth profiling, strain panel (AID 1159580);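 note: tested at 20 µM; growth read once vehicle control cultures reached saturation at 30 °C; 1 = growth at the plate median or of vehicle wells; lower values mean less growth of the strain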
Setup Conditions: S. cerevisiae deletion strains, growth OD, locus YLR113W, strain HOG1, active compounds read low
The whole screen tested about 5,500 compounds, of which about 2,000 (36%) were called active. Inconclusive results (about 18%) are left out. Some of the results follow.
Measured Property: normalized growth

C=CCSC[C@@H](N)C(=O)O
0.973
CC1(C)S[C@@H]2[C@H](NC(=O)[C@@H](N)c3ccc(O)cc3)C(=O)N2[C@H]1C(=O)O
1.04
O=C(O)c1ccccc1O
0.987
NCCCCN
1.01
CC1=CC(=O)C2C(C)(C)CCC[C@]2(C)[C@@]1(O)CCc1ccoc1 (some centres undefined)
1.02
COC(=O)[C@H]1[C@H]2C[C@H]3c4[nH]c5cc(OC)ccc5c4CCN3C[C@H]2C[C@@H](OC(=O)c2cc(OC)c(OC)c(OC)c2)[C@@H]1OC
0.988
CSCCC(N)C(=O)NC(CC(C)C)C(=O)NC(Cc1ccccc1)C(=O)O (centres undefined)
0.988
O=C(NNc1cc(C(F)(F)F)cc(C(F)(F)F)c1)c1cnc2n(c1=O)CCS2
0.883
C=CCSSCC=C
0.881

* * *

Assay Procedure: chemical genetic growth profiling, strain panel (AID 1159580);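 note: tested at 20 µM; growth read once vehicle control cultures reached saturation at 30 °C; 1 = growth at the plate median or of vehicle wells; lower values mean less growth of the strain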
Setup Conditions: S. cerevisiae deletion strains, growth OD, locus YLR058C, strain SHM2 (second series), active compounds read low
Among all 5,500 compounds or so, about 2,000 (36%) were called active. Another 18% or so got no clear call; they are omitted. The list shows a part of the results.
In this section, each of the compounds is paired with its reported normalized growth.
Measured Property: normalized growth

Cc1ccc(NC(=O)CC#N)c(C)c1
1
COc1ccccc1N1CCN(C(=O)C(C)Nc2ccccn2)CC1 (stereo not drawn)
0.996
Cc1nnsc1C(=O)O/N=C1/CCSc2ccc(F)cc21
0.985
COc1cc(NC(=S)N2CCN(c3ccccc3OC)CC2)c(OC)cc1Cl
1.01
O=C1NC(=S)NC(=O)C1=Cc1cccc2ccccc12
0.99
Cn1c(SCC(=O)N2CCOCC2)nnc1-c1ccc2ncccc2c1
0.995
CCOC(=O)/C(C#N)=C/N=C(N/N=C\c1c(Cl)cccc1Cl)SC
0.989
COc1ccccc1N1CCN(C(=O)Nc2cc(Cl)cc(Cl)c2)CC1
1
NNC(=O)c1cccnc1Oc1ccccc1
1
O=C(NCCCCO)OCC1c2ccccc2-c2ccccc21
0.98
CCOC(=O)C1C(=O)C=C(c2cccs2)CC1c1ccc(OC)c(OC)c1Cl (stereo not drawn)
0.992
CSc1cc(C(F)(F)F)cc(SC)c1SC
0.974
Cc1ccc(SC(=O)c2cccnc2Oc2ccccc2)cc1
0.992
COC(CNc1cccc(Cl)c1C#N)OC
0.989
COC(=O)c1cccnc1Sc1ccc(C)cc1
0.966
O=C(NC1CCCCC1)N1CCN(c2ncccc2C(F)(F)F)CC1
0.987
O=[N+]([O-])c1cnc2ccccn12
1.01
CC(C)(C)c1ccc(Oc2ncccc2NC(=O)c2ccccc2C(F)(F)F)cc1
0.986
